molecular target: GlcNAc(b1-3)Gal(b1-4)GlcNAc(b1-3)Gal(b1-4)GlcNAc; experiment: glycan array binding signal (z-score within array); higher = stronger binding; conditions: glycan notation: IUPAC condensed, linker removed
This is one part of a sample in which the strongest signals are shown more often than they occur.
endpoint-name: glycan array binding signal (z-score)

Reported glycan array binding signal (z-score) ( LecRKVI.2 (protein) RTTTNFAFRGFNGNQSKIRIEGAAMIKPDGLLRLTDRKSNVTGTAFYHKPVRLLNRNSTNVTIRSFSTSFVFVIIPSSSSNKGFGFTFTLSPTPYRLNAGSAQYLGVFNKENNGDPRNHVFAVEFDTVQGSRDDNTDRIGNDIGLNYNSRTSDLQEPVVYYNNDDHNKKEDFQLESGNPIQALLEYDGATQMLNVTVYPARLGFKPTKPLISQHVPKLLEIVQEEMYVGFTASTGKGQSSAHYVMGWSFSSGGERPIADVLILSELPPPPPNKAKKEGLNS ) = -0.415

For record CD34 (Homo sapiens), P28906 (protein) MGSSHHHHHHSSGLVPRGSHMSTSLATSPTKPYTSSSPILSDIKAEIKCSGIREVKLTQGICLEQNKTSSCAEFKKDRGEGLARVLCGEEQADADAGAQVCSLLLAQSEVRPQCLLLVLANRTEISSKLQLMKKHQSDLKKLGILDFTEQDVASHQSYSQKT the listed glycan array binding signal (z-score) is -0.666

Per the record, MSMEG3662-2a (Mycobacterium smegmatis), A0QYH7_MYCS2 (protein) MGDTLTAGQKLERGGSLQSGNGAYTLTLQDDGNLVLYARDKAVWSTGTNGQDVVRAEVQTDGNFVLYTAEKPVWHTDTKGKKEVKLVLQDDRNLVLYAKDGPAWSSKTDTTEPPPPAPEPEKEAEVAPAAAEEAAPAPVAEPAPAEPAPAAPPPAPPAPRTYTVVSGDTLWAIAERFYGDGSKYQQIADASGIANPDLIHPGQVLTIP has glycan array binding signal (z-score) of -0.131

Entry under test: Mermaid2 (Stilbonema majum) (protein) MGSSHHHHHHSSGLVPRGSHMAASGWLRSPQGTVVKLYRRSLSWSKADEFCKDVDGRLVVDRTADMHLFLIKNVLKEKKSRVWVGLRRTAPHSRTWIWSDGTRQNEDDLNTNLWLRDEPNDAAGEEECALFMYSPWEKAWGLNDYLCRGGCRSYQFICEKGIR . Its glycan array binding signal (z-score) was -0.357

Record SUN4 (Saccharomyces cerevisiae), P53616 (protein) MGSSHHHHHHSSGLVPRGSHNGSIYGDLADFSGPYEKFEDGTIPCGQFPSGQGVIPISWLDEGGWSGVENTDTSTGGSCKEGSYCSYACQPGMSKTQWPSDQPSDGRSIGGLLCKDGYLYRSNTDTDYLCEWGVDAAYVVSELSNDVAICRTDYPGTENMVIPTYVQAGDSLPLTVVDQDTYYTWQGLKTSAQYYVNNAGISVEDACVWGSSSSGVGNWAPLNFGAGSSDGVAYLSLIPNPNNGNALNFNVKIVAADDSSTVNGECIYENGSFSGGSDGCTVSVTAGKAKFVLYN . Reported glycan array binding signal (z-score): 0.244
